Where do these numbers come from? They come from ChEMBL document CHEMBL4513216.

// values below are reported INHIBITION
- System: Plasmodium berghei
- TEST DESCRIPTION: Screen against P. berghei liver stage (PbLuc), transformed with Luciferase, at 10uM
- Type: functional, HepG2
- CONDITION PARAMETERS: tested at 10 uM
Out of some 69,000 compounds screened, about 8,600 (12%) showed an effect of 50% or more. The full list was thinned out, with strong results kept by preference.

- COMPOUND: "CN1CC2(CCNCC2)COc2ccccc2S1(=O)=O"
  ASSAY TARGET: "Plasmodium berghei"
  INHIBITION (%): -15.7
- COMPOUND: "Cc1cccc(CN2CCC(c3csc4nccn34)CC2)n1"
  ASSAY TARGET: "Plasmodium berghei"
  INHIBITION (%): 15.55
- COMPOUND: "Cc1cc(=O)n2c3c(cc(S(=O)(=O)NC4CC4)cc13)CCC2"
  ASSAY TARGET: "Plasmodium berghei"
  INHIBITION (%): 49.45
- COMPOUND: "O=S(=O)(NCc1ccnc(-n2ccnc2)c1)c1cncc(F)c1"
  ASSAY TARGET: "Plasmodium berghei"
  INHIBITION (%): 2.93
- COMPOUND: "NC(=O)C1CCN(C(=O)NCc2csc(Br)c2)CC1"
  ASSAY TARGET: "Plasmodium berghei"
  INHIBITION (%): 16.9975
- COMPOUND: "NC(=O)CN1CCCC(Cc2ccc(N)nn2)C1 (configuration not stated)"
  ASSAY TARGET: "Plasmodium berghei"
  INHIBITION (%): 8.72
- COMPOUND: "COc1ccccc1NC(=O)NCC(O)c1ccc(F)cc1F (configuration not stated)"
  ASSAY TARGET: "Plasmodium berghei"
  INHIBITION (%): 12.7
- COMPOUND: "CN(Cc1nc(N2CCCC2)ncc1-c1ccncc1)C(=O)C(C)(C)C"
  ASSAY TARGET: "Plasmodium berghei"
  INHIBITION (%): 21.6
- COMPOUND: "Cc1noc(CNC(=O)CN(C)c2nc3ccccc3s2)n1"
  ASSAY TARGET: "Plasmodium berghei"
  INHIBITION (%): -4.01
- COMPOUND: "Cc1nc(CN2CCO[C@@H]3CC(COc4ccccn4)C[C@H]32)cs1 (some centres not stated)"
  ASSAY TARGET: "Plasmodium berghei"
  INHIBITION (%): 31.5
- COMPOUND: "Cc1nnnn1-c1cc(NCc2cc(C#N)ccc2F)ccc1F"
  ASSAY TARGET: "Plasmodium berghei"
  INHIBITION (%): 32.3
- COMPOUND: "CCN1CC(C(=O)NC(C)(C)C(=O)OC)CC1=O (configuration not stated)"
  ASSAY TARGET: "Plasmodium berghei"
  INHIBITION (%): -10.3
